Assay: inhibitors of hydroxyurea-induced Chk1 phosphorylation, primary screen, imaging, HeLa, phospho-Chk1 nuclear intensity (AID 1187)
Conditions: hydroxyurea-induced phospho-Chk1 immunofluorescence imaging, higher = more signal
Observed property: z-score
Answer using only a numeral; do not append any unit.

The reported value for COC(=O)C1=CC(c2ccc(CO)cc2)=CC(c2cccs2)N(C)C=C1C(=O)OC (configuration not stated) in terms of z-score is -0.22

Given item "O=C(NC1CC1)[C@@H]1c2ccccc2C(=O)N(Cc2ccccc2C(F)(F)F)[C@H]1c1ccc(CO)cc1" , the value recorded as its z-score is 0.177

Noted for "CC(C)CNC(=O)[C@@H]1c2ccccc2C(=O)N(Cc2ccc(OC(F)(F)F)cc2)[C@H]1c1ccc(CO)cc1" : its z-score reads -1.36

The measured z-score associated with "C=CCN1C(=O)[C@@]2(O[C@@H](CCn3cc(CCO)nn3)[C@H]([Si](C)(C)c3ccc(OC)cc3)[C@H]2C)c2cc(N3C(=O)c4cccc5cccc3c45)ccc21" reads -0.144

"COCCCNC(=O)[C@@]1(Cc2ccccc2)N=C(c2ccc(OCCCO)cc2)O[C@H]1c1ccccc1N=[N+]=[N-]" yielded z-score of -0.373

Form field z-score, entry "COC(=O)C(CC#Cc1ccc2c(c1)[C@]1(C(=O)N2)[C@H](C(=O)O)[C@H]2C(=O)O[C@H](c3ccccc3)[C@H](c3ccccc3)N2[C@@H]1c1ccc(OCCO)cc1)C(=O)OC" : 0.124

// recorded z-score for "COCCCN1C(=O)[C@@]2(Cc3ccccc31)c1ccccc1C(=O)N(Cc1ccccc1Cl)[C@H]2c1ccc(CO)cc1" : -0.981

---

Assay: basal HepG2 mitochondrial membrane potential changes, profiling panel, cell-based, JC-1 fluorescence, 24 h, 100 nL compound (AID 1167)
Settings: higher = more signal
Recorded z-score by entry
Give a plain numeric answer without units written out.

Sample answers from the record:
Structure | z-score
Cc1ccc(N2C(=O)c3ccccc3[C@](C)(C(=O)NC3CC3)[C@@H]2c2ccc(CO)cc2)nc1 | 0.587
CCCNC(=O)[C@@H]1c2ccccc2C(=O)N(Cc2cc(C(F)(F)F)cc(C(F)(F)F)c2)[C@H]1c1ccc(CO)cc1 | 1.4
COCCOC(=O)N1C(=O)[C@@]2(c3cc(C#CC4(O)CCCCCC4)ccc31)[C@H](c1ccc(O)cc1)N1[C@H](c3ccccc3)[C@H](c3ccccc3)OC(=O)[C@H]1[C@@H]2C(N)=O | -1.6

Please examine the following record next.
Measured z-score, "COc1ccc([Si](C)(C)[C@@H]2[C@@H](CCn3cc([C@H](O)c4ccccc4)nn3)O[C@]3(C(=O)N(C)c4c(Br)cc(C)cc43)[C@H]2C)cc1" : -1.11

---

Test: NIH:OVCAR-3 ovarian cancer cell cytotoxicity, dose response, PAX8 inhibitor project, plate reader, dry powder samples (AID 743044)
Details: NIH:OVCAR-3 ovarian cancer cell viability; at 35 µM, stronger effect = lower value unless noted
Results with a measured potency or affinity are listed apart. Results filed as inconclusive are left out. Calls of active or inactive are those of the source. No rule for the calls is given here.
Observed property: max activity

Example entries begin here.
Structure | max activity
COc1ccc(S(=O)(=O)Nc2ccc3c(c2)C(=O)N([C@H](C)CO)C[C@@H](C)[C@H](CN(C)S(=O)(=O)c2ccc(F)cc2)OCCCC[C@H](C)O3)cc1 | -24.5% (inactive)
C[C@@H]1CN([C@H](C)CO)C(=O)c2cc(NC(=O)Nc3ccc(C(F)(F)F)cc3)ccc2O[C@@H](C)CCCCO[C@H]1CN(C)Cc1ccc2c(c1)OCO2 | -34.3% (inactive)
C[C@@H]1CN([C@@H](C)CO)C(=O)c2cc(NC(=O)Nc3ccc(C(F)(F)F)cc3)ccc2O[C@@H](C)CCCCO[C@@H]1CN(C)CC1CCCCC1 | 15.9% (inactive)
C[C@@H]1CN([C@@H](C)CO)C(=O)c2cc(NS(=O)(=O)c3ccccc3)ccc2O[C@@H](C)CCCCO[C@@H]1CN(C)Cc1ccc(C(F)(F)F)cc1 | -5.59% (inactive)
C[C@@H]1CN([C@H](C)CO)C(=O)c2cc(NC(=O)CCCCCC(=O)Nc3ccccc3N)ccc2O[C@@H](C)CCCCO[C@H]1CN(C)Cc1ccc(Cl)c(Cl)c1 | -28.2% (inactive)
O=C(C[C@@H]1CC[C@@H]2[C@H](COC[C@@H](O)CN2C(=O)Nc2ccc(C(F)(F)F)cc2)O1)NC1Cc2ccccc2C1 | -24.5% (inactive)
COc1ccc(-c2cn(CC[C@H]3CC[C@H](NC(=O)Cc4ccccn4)[C@@H](CO)O3)nn2)cc1 | -17.4% (inactive)
C[C@H](CO)N1C[C@H](C)[C@H](CN(C)Cc2ccc(Cl)c(Cl)c2)Oc2c(NS(=O)(=O)c3ccc(Cl)cc3)cccc2C1=O | 53.6% (inactive)

Let us examine a further case.
The recorded max activity for "COc1cccc(S(=O)(=O)N2CC[C@H]3[C@@H](CO)N(C)c4ccc(C#Cc5ccc(F)cc5)cc4[C@H]32)c1" is -17.2% (inactive)

---

System: XIP peptide (Xip251-270)
Assay: small-molecule binders of XIP peptide, primary screen, biochemical, small-molecule microarray, fluorescence 635/667 nm, 0.5 µg/mL protein (AID 1183)
Conditions: small-molecule microarray binding, fluorescence 635 nm; higher = more signal
Decision: composite z-score compared against -0.5; not below it gives rule met, below it gives rule not met.

These recorded examples may help you get a feel for the data.
Compound | Class name
C=C(C(=O)CC[C@H](OC(C)=O)c1ccc(CO)o1)C(C)C | rule met
C=C(COC)C(=O)CC[C@H](OC(=O)c1ccccc1-c1ccccc1C(=O)O)c1ccccc1OCCO | rule met
Cc1ccc(S[C@]2(C(=O)NC3CC3)CC(=O)N(Cc3ccccc3C(F)(F)F)[C@@H]2c2ccc(CO)cc2I)cc1 | rule not met

Request: Identify whether the reported composite z-score of the following compound is -0.5 or greater: "C=C(/C(=C/C[C@H](OC(C)=O)c1cccc(OCCO)c1)c1cc(C(=O)OC)ccc1OC)C(C)C"
Result: rule not met

Request: Does composite z-score meet or surpass -0.5 for C[C@@H](OCc1ccccc1)C1NC(=O)[C@@]23C(=O)N[C@@H](Cc4ccccc4)C2[C@H](C)[C@@]2(C)O[C@H]2C3/C=C/C/C=C\CNC(=O)[C@@H]2CCCN2C1=O (stereo not given in full) ?
Result: rule not met

Request: hey, is composite z-score for this one >= -0.5? "COC(=O)[C@@]1(CCC(=O)OC(C)(C)C)COC(c2ccc(OCCCO)cc2)=N1"
Result: rule not met

Request: Is composite z-score at least -0.5? Consider "CO[C@H]1O[C@H](CO)[C@@H](OC(=O)CCc2ccccc2)[C@@H]2OC(=O)[C@H](Cc3ccccc3)C/C=C/C[C@@H](Cc3ccccc3)C(=O)O[C@@H]12"
Result: rule met

Request: Identify whether the reported composite z-score of the following compound is -0.5 or greater: C=CCC(OC(C)=O)[C@@H]1[C@@H](N(Cc2ccc(-c3cccc(C(F)(F)F)c3)o2)C(=O)c2ccc(-c3ccccc3)cc2)c2cc(OCCCO)ccc2N1C(=O)Cc1ccc(OC)cc1 (stereo not given in full)
Result: rule not met

Request: Item "O=C(N1CCCCC1)[C@@]1(Cc2ccccc2)N=C(c2ccc(OCCCO)cc2)O[C@H]1c1ccccc1" with composite z-score of -0.5 or above?
Result: rule met

Request: Say whether "C=C(COC)/C(=C/C[C@H](OC(C)=O)c1ccc(CO)o1)c1cnc2ccccc2c1" shows composite z-score of -0.5 or more.
Result: rule met

---

Recorded composite z-score, one value per entry.
Biological target: Pro-neuregulin-1, membrane-bound isoform (Homo sapiens)
Test: NRG1 binders on small-molecule microarrays, primary screen, psychiatric disease protein project, biochemical, small-molecule microarray, fluorescence 635/667 (AID 1075);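 note: score combines 667 nm spot fluorescence with signal to noise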
Conditions: NRG1 binding, 635 nm fluorescence, higher = more signal
Keep it simple and answer with nothing but the number.

Structure | composite z-score
Cc1ccc(S[C@]2(C(=O)NCC(C)C)CC(=O)N(C(C)C)[C@@H]2c2ccc(CO)cc2)cc1 | -0.517
C=CC[C@]1(C(=O)N2CCCCC2)COC(c2ccc(OCCCO)cc2)=N1 | 1.05
CCCCCCC#C[Si](O[C@H](c1ccccc1)c1cn(Cc2ccccc2)nn1)(C(C)C)C(C)C | -0.0854

With those in mind, consider the next molecule.
Simply: "COCCOC(=O)N1C(=O)[C@@]2(c3cc(C#CC4(O)CCCCCC4)ccc31)[C@H](C(=O)NC[C@H](O)c1ccccc1)[C@H]1C(=O)O[C@H](c3ccccc3)[C@H](c3ccccc3)N1[C@@H]2c1ccccc1OCCO" , Pro-neuregulin-1, membrane-bound isoform (Homo sapiens), composite z-score = 1.29

---

Target: Dihydroorotate dehydrogenase (quinone), mitochondrial (Plasmodium falciparum (isolate 3D7)) (UniProt Q08210)
Sequence (Q08210 whole entry, looked up): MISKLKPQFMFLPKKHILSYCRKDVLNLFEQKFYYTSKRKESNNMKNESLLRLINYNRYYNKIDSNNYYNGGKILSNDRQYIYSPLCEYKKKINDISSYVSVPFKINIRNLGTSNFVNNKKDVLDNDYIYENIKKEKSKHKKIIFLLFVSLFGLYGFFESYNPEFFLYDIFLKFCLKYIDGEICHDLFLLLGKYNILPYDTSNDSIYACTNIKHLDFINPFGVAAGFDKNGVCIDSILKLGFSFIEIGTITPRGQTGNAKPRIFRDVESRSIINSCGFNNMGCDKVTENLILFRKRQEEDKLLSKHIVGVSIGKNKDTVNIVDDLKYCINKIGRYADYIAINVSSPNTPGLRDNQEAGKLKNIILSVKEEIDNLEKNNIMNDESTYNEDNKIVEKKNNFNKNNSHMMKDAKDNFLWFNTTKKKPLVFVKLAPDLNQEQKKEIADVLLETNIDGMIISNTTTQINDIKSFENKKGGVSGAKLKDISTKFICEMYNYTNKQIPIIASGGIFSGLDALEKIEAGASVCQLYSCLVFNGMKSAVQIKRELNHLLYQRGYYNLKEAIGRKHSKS
Experiment: PfDHODH enzyme inhibitors, primary screen, biochemical, C-terminal His tag, absorbance 600 nm (AID 1175);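 note: recombinant parasite enzyme with a five histidine tag at its C terminus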
Conditions: DCIP absorbance 600 nm, higher = more signal, called active from +8 up or from −8 down
Categories are defined by ranges of composite z-score, namely 0: < -1; 1: ≥ -1 and < -0.2; 2: ≥ -0.2

Worked set:
Compound | Class name
O=C1O[C@H](c2ccccc2)[C@H](c2ccccc2)N2[C@H]1[C@@H](C(=O)Nc1nc3ccccc3s1)[C@]1(C(=O)Nc3ccc(C#CCCO)cc31)[C@H]2c1ccccc1OCCO | 1
COC(=O)c1c(CC[C@@H](CO)NC(=O)Nc2ccc(OC)cc2)oc(C(=O)Cc2ccccc2)c1C(=O)OC | 0
COc1ccc([Si](C)(C)[C@@H]2[C@@H](CC(=O)N3CCC[C@H]3CO)O[C@]3(C(=O)N(Cc4ccc(N5CCC5=O)cc4)c4ccccc43)[C@H]2C)cc1 | 0
O=C(NCC(F)(F)F)[C@@H]1c2ccccc2C(=O)N(C2Cc3ccccc3C2)[C@H]1c1ccc(CO)cc1 | 0
C#CCOc1ccc(C[C@H]2C(=O)O[C@H](Cc3ccccc3)[C@H](/C=C/C3CC3)N2CC#C)cc1 | 2
CC(C)NC(=O)[C@@H]1c2ccccc2C(=O)N(Cc2cc(F)cc(C(F)(F)F)c2)[C@H]1c1ccc(CO)cc1 | 1
CCCCCN1CC=CC23O[C@@H]4/C=C\CCC(C)OC(=O)C4[C@H]2C(=O)N(CCCO)[C@@H]3C1=O (stereo not given in full) | 2
C=C(C(=O)CC[C@@H](OC(C)=O)c1ccccc1OCCO)C(C)C | 0
C=C(COC)C(=O)CC[C@@H](OC(=O)c1ccccc1-c1ccccc1C(=O)O)c1cccc(OCCO)c1 | 1
C=CCC1(CC=C)C[C@H]2CO[C@H](c3ccc(OC)cc3)N2C1=O | 2

Request: Hey, which category is "COC(=O)C(CC#Cc1ccc2c(c1)[C@]1(C(=O)N2)[C@H](C(=O)O)[C@H]2C(=O)O[C@H](c3ccccc3)[C@H](c3ccccc3)N2[C@@H]1c1ccc(OCCO)cc1)C(=O)OC" in, do you know?
Result: 0

Request: Pick a category. Item: "Cc1ccc(S[C@]2(C(=O)NCCN3CCOCC3)CC(=O)N(Cc3cc(C(F)(F)F)cc(C(F)(F)F)c3)[C@@H]2c2ccc(CO)cc2)cc1"
Result: 1

Request: Band of "COc1c(C)cc(-c2cc3c(c(CCc4ccccc4)n2)[Si](C(C)C)(C(C)C)OC3)cc1C" ?
Result: 1

Request: In plain terms, what class is "Cc1ccc(S[C@]2(C(=O)NCC(C)C)CC(=O)N(C(C)C)[C@@H]2c2ccc(CO)cc2)cc1" ?
Result: 2

Request: Hi there! Could you help me figure out the category for "CO[C@H]1O[C@H](CO)[C@@H](OC(=O)CCc2ccccc2)[C@@H]2OC(=O)[C@H](Cc3ccccc3)C/C=C/C[C@@H](Cc3ccccc3)C(=O)O[C@@H]12" please?
Result: 0
